Cited source: ChEMBL document CHEMBL5724806

Experiment: The drug is tested on the gut metagenome community of P-03 with ENA study accession number: PRJEB31790 for biotransformation under microaerobic condition. The drug concentrations were measured over 7 timepoints collected between 0 and 12 hours of incubation by liquid-chromatography-coupled mass spectrometry (LC–MS)
Format: ADME
Set-up: dose 5 uM, timepoint 0, 0.75, 1.5, 3, 6, 9, 12 hours
Details: 5 µM

- compound: "C[C@]12CCC(=O)C=C1CC[C@@H]1[C@@H]2C(=O)C[C@@]2(C)[C@H]1CC[C@]2(O)C(=O)CO"
  Bacterial Biotransformation: "Compound metabolized"
- compound: "C=CC[C@@H]1/C=C(\\C)C[C@H](C)C[C@H](OC)[C@H]2O[C@@](O)(C(=O)C(=O)N3CCCC[C@H]3C(=O)O[C@H](/C(C)=C/[C@@H]3CC[C@@H](O)[C@H](OC)C3)[C@H](C)[C@@H](O)CC1=O)[C@H](C)C[C@@H]2OC.O"
  Bacterial Biotransformation: "Compound NOT metabolized"
- compound: "CCOc1nc2cccc(C(=O)O)c2n1Cc1ccc(-c2ccccc2-c2nnn[nH]2)cc1"
  Bacterial Biotransformation: "Compound NOT metabolized"
- compound: "C[C@@H](NCCCc1cccc(C(F)(F)F)c1)c1cccc2ccccc12"
  Bacterial Biotransformation: "Compound NOT metabolized"
- compound: "CN(Cc1cnc2nc(N)nc(N)c2n1)c1ccc(C(=O)N[C@@H](CCC(=O)O)C(=O)O)cc1 [METHOTREXATE]"
  Bacterial Biotransformation: "Compound NOT metabolized"
- compound: "COc1ccc([C@@H]2Sc3ccccc3N(CCN(C)C)C(=O)[C@@H]2OC(C)=O)cc1"
  Bacterial Biotransformation: "Compound metabolized"
- compound: "COc1c(C)c2c(c(O)c1C/C=C(\\C)CCC(=O)O)C(=O)OC2"
  Bacterial Biotransformation: "Compound NOT metabolized"
- compound: "CO[C@H]1C[C@@H]2CC[C@@H](C)[C@@](O)(O2)C(=O)C(=O)N2CCCC[C@H]2C(=O)O[C@H]([C@H](C)C[C@@H]2CC[C@@H](O)[C@H](OC)C2)CC(=O)[C@H](C)/C=C(\\C)[C@@H](O)[C@@H](OC)C(=O)[C@H](C)C[C@H](C)/C=C/C=C/C=C/1C"
  Bacterial Biotransformation: "Compound NOT metabolized"
- compound: "CCOC(=O)[C@H](CCc1ccccc1)N[C@@H](C)C(=O)N1[C@H](C(=O)O)C[C@@H]2CCC[C@@H]21"
  Bacterial Biotransformation: "Compound NOT metabolized"
- compound: "C[C@]12C=CC(=O)C=C1CC[C@@H]1[C@@H]2[C@@H](O)C[C@@]2(C)[C@H]1CC[C@]2(O)C(=O)CO"
  Bacterial Biotransformation: "Compound metabolized"
- compound: "C[C@@H]1C[C@H]2[C@@H]3CCC4=CC(=O)C=C[C@]4(C)[C@@]3(F)[C@@H](O)C[C@]2(C)[C@@]1(O)C(=O)CO"
  Bacterial Biotransformation: "Compound NOT metabolized"
- compound: "C[C@]12C=CC(=O)C=C1CC[C@@H]1[C@@H]2C(=O)C[C@@]2(C)[C@H]1CC[C@]2(O)C(=O)CO"
  Bacterial Biotransformation: "Compound metabolized"
- compound: "C[C@H]1C[C@@H]2[C@H]([C@@H](O)C[C@@]3(C)[C@H]2CC[C@]3(O)C(=O)CO)[C@@]2(C)C=CC(=O)C=C12"
  Bacterial Biotransformation: "Compound metabolized"
- compound: "C[C@H]1C[C@H]2[C@@H]3CCC4=CC(=O)C=C[C@]4(C)[C@@]3(F)[C@@H](O)C[C@]2(C)[C@@]1(O)C(=O)CO"
  Bacterial Biotransformation: "Compound NOT metabolized"
- compound: "CCCC1O[C@@H]2C[C@H]3[C@@H]4CCC5=CC(=O)C=C[C@]5(C)[C@H]4[C@@H](O)C[C@]3(C)[C@]2(C(=O)CO)O1 (stereo partly specified) [BUDESONIDE]"
  Bacterial Biotransformation: "Compound NOT metabolized"
- compound: "CNC(=C[N+](=O)[O-])NCCSCc1ccc(CN(C)C)o1"
  Bacterial Biotransformation: "Compound NOT metabolized"

----------
Test: The drug is tested on the gut metagenome community of A-05 with ENA study accession number: PRJEB31790 for biotransformation under microaerobic condition. The drug concentrations were measured over 7 timepoints collected between 0 and 12 hours of incubation by liquid-chromatography-coupled mass spectrometry (LC–MS)
Format: ADME
Set-up: dose 5 uM, timepoint 0, 0.75, 1.5, 3, 6, 9, 12 hours
Conditions: 5 µM
endpoint: Bacterial Biotransformation

- smiles data: "CCOc1nc2cccc(C(=O)O)c2n1Cc1ccc(-c2ccccc2-c2nnn[nH]2)cc1"
  endpoint: "Bacterial Biotransformation"
  value reported: "Compound NOT metabolized"
- smiles data: "C[C@@H](NCCCc1cccc(C(F)(F)F)c1)c1cccc2ccccc12"
  endpoint: "Bacterial Biotransformation"
  value reported: "Compound NOT metabolized"
- smiles data: "COc1ccc([C@@H]2Sc3ccccc3N(CCN(C)C)C(=O)[C@@H]2OC(C)=O)cc1"
  endpoint: "Bacterial Biotransformation"
  value reported: "Compound metabolized"
- smiles data: "Cn1cnc([N+](=O)[O-])c1Sc1ncnc2nc[nH]c12"
  endpoint: "Bacterial Biotransformation"
  value reported: "Compound metabolized"
- smiles data: "C[C@]12C=CC(=O)C=C1CC[C@@H]1[C@@H]2C(=O)C[C@@]2(C)[C@H]1CC[C@]2(O)C(=O)CO"
  endpoint: "Bacterial Biotransformation"
  value reported: "Compound metabolized"
- smiles data: "C=CC[C@@H]1/C=C(\\C)C[C@H](C)C[C@H](OC)[C@H]2O[C@@](O)(C(=O)C(=O)N3CCCC[C@H]3C(=O)O[C@H](/C(C)=C/[C@@H]3CC[C@@H](O)[C@H](OC)C3)[C@H](C)[C@@H](O)CC1=O)[C@H](C)C[C@@H]2OC.O"
  endpoint: "Bacterial Biotransformation"
  value reported: "Compound metabolized"
- smiles data: "C[C@]12CCC(=O)C=C1CC[C@@H]1[C@@H]2C(=O)C[C@@]2(C)[C@H]1CC[C@]2(O)C(=O)CO"
  endpoint: "Bacterial Biotransformation"
  value reported: "Compound metabolized"
